B1: Hairpin Ribozyme (parent)
chain: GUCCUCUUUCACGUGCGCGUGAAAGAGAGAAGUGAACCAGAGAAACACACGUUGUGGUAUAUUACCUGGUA

# Variants of: B1
# EXPERIMENT NOTES: self-cleavage, relative activity (ratio to wild type); higher = more cleavage; co-transcriptional
Here the recorded self-cleavage is given for each entry.

Before answering, review these 5 worked examples.
# MUTATION DESCRIPTOR, self-cleavage
data = [
    ("U5A G69U", 0.115),
    ("A43U", 0.151),
    ("U14C C18G", 0.957),
    ("U2A U52G", 0.203),
    ("G15A U60A", 0.767),
]

Can you share its self-cleavage? I mean this variant: A22U A44C
0.239

Can you share its self-cleavage? I mean this variant: U14G C38G
0.119

Can you share its self-cleavage? I mean this variant: U14G A24C
0.887

Can you share its self-cleavage? I mean this variant: U8C G13A
0.722

Can you share its self-cleavage? I mean this variant: G19U A31U
0.0864

Can you share its self-cleavage? I mean this variant: U8A C50U
0.311

Can you share its self-cleavage? I mean this variant: A11G A24G
0.792

Can you share its self-cleavage? I mean this variant: U8A C46G
0.0541

Can you share its self-cleavage? I mean this variant: G1A U55A
0.229

Can you share its self-cleavage? I mean this variant: G15A G42C
0.294

Entry source: the RNAGym collection of RNA variant scans (doi:10.7554/elife.80360)
